# Test system: P2Y receptors
# Assay protocol: Ca2+ signals
# Assay type: cell-based, rat
# Test parameters: sustained increase measured between 250 and 300 s, cultured ASMC
Sorting guide: entries reporting Δ[Ca2+]i Sustained beneath 60 nM go in the Criterion met pile, the rest go in the Criterion not met pile.

Is it true that Δ[Ca2+]i Sustained reported for O=c1ccn([C@@H]2O[C@H](COP(=O)(O)OP(=O)(O)OP(=O)(O)O)[C@@H](O)[C@H]2O)c(=O)[nH]1 [UTP] is less than 60 nM? Criterion not met

Is it true that Δ[Ca2+]i Sustained reported for N[C@@H]1[C@H](O)[C@@H](COP(=O)(O)OP(=O)(O)OP(=O)(O)O)O[C@H]1n1ccc(=O)[nH]c1=O [2′-amino-UTP, 2′-amino-2′-deoxyuridine-5′-triphosphate] is less than 60 nM? Criterion not met

Is it true that Δ[Ca2+]i Sustained reported for [N-]=[N+]=N[C@@H]1[C@H](O)[C@@H](COP(=O)(O)OP(=O)(O)OP(=O)(O)O)O[C@H]1n1ccc(=O)[nH]c1=O [2′-azido-UTP, 2′-azido-2′-deoxyuridine-5′-triphosphate] is less than 60 nM? Criterion met

Is it true that Δ[Ca2+]i Sustained reported for Nc1ncnc2c1ncn2[C@@H]1O[C@H](COP(=O)(O)OP(=O)(O)OP(=O)(O)O)[C@@H](O)[C@H]1O [ATP] is less than 60 nM? Criterion not met

Is it true that Δ[Ca2+]i Sustained reported for O=c1ccn([C@@H]2O[C@H](COP(=O)(O)OP(=O)(O)OP(=O)(O)O)[C@@H](O)[C@H]2O)c(=S)[nH]1 [2-thio-UTP, 2-thio-uridine-5′-triphosphate] is less than 60 nM? Criterion not met

Is it true that Δ[Ca2+]i Sustained reported for CSc1nc(N)c2ncn([C@H]3[C@H](O)[C@H](O)[C@]4(COP(=O)(O)OP(=O)(O)O)C[C@H]34)c2n1 [MRS2365, (N)-methanocarba-2-MeSADP] is less than 60 nM? Criterion met

Is it true that Δ[Ca2+]i Sustained reported for O=c1ccn([C@@H]2O[C@H](COP(=O)(O)OP(=O)(O)O)[C@@H](O)[C@H]2O)c(=O)[nH]1 [UDP] is less than 60 nM? Criterion met

Is it true that Δ[Ca2+]i Sustained reported for CSc1nc(N)c2ncn([C@@H]3O[C@H](COP(=O)(O)OP(=O)(O)O)[C@@H](O)[C@H]3O)c2n1 [2-MeSADP, 2-methylthio-adenosine-5′-diphosphate] is less than 60 nM? Criterion met

* * *

Let's look at some compounds and their measured pEC50 Peak (Ca2+-free).
# Target or system: P2Y receptors
# Assay protocol: Ca2+ signals
# Type: cell-based, rat
# Test parameters: peak response in Ca2+-free HBS
Format: numeric value only, no unit, no commentary.

Use the examples below as a reference point.
pEC50 Peak (Ca2+-free) for P2Y receptors with input CSc1nc(N)c2ncn([C@H]3[C@H](O)[C@H](O)[C@]4(COP(=O)(O)OP(=O)(O)O)C[C@H]34)c2n1 equals 8.56

pEC50 Peak (Ca2+-free) for P2Y receptors with input O=c1ccn([C@@H]2O[C@H](COP(=O)(O)OP(=O)(O)OP(=O)(O)O)[C@@H](O)[C@H]2O)c(=O)[nH]1 equals 5.39

pEC50 Peak (Ca2+-free) for P2Y receptors with input O=c1ccn([C@@H]2O[C@H](COP(=O)(O)OP(=O)(O)O)[C@@H](O)[C@H]2O)c(=O)[nH]1 equals 6.16

Next:
pEC50 Peak (Ca2+-free) for P2Y receptors with input Nc1ncnc2c1ncn2[C@@H]1O[C@H](COP(=O)(O)OP(=O)(O)OP(=O)(O)O)[C@@H](O)[C@H]1O equals 5.95

These measurements were taken from paper PMC2913105.
